// data source = ChEMBL document CHEMBL1961873

system-name: Calcium/calmodulin-dependent protein kinase type IV (Homo sapiens) (UniProt Q16566);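 further: each value is a mean inhibition of CAMK4, part of the GSK PKIS kinase screening panel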
Sequence (Q16566 whole entry): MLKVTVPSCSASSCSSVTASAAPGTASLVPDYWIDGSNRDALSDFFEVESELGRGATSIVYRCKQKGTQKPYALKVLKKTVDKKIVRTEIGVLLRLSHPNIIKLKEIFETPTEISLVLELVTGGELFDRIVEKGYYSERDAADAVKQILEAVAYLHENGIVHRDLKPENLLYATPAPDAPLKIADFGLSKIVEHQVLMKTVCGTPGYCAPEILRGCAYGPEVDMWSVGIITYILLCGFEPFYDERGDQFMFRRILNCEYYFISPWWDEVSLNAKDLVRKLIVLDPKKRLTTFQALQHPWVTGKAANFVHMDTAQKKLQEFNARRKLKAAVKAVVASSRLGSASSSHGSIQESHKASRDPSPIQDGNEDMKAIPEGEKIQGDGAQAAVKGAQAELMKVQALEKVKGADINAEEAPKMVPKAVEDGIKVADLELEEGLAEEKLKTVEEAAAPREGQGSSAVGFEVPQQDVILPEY
condition-summary: at 0.1 µM
measurement-label: inhibition
# do not omit the unit; it follows the number

1) COc1ccc(-c2oc3ncnc(N)c3c2-c2ccc(NC(=O)Nc3cc(C(F)(F)F)ccc3F)cc2)cc1 ... 0.6%
2) Cc1ccc(O)cc1Nc1ccnc2cc(-c3ccccn3)ccc12 ... -0.2%
3) CN1CCC(n2cnc(-c3ccc(F)cc3)c2-c2ccnc(N)n2)CC1 ... -0.06%

Consider the molecule CC(C)COC(=O)c1ccc2c(c1)/C(=C/Nc1ccc(S(N)(=O)=O)cc1)C(=O)N2 . State its measured inhibition. 1.85%

Consider the molecule N#Cc1c(NC(=O)CN2CCOCC2)sc2c1CCCC2 . State its measured inhibition. -1.76%

Consider the molecule NS(=O)(=O)c1ccc(Nc2ncc(-c3ccccc3)o2)cc1 . State its measured inhibition. -0.86%

====

system-name: Tyrosine-protein kinase Tec (Homo sapiens) (UniProt P42680)
Sequence (P42680 whole entry): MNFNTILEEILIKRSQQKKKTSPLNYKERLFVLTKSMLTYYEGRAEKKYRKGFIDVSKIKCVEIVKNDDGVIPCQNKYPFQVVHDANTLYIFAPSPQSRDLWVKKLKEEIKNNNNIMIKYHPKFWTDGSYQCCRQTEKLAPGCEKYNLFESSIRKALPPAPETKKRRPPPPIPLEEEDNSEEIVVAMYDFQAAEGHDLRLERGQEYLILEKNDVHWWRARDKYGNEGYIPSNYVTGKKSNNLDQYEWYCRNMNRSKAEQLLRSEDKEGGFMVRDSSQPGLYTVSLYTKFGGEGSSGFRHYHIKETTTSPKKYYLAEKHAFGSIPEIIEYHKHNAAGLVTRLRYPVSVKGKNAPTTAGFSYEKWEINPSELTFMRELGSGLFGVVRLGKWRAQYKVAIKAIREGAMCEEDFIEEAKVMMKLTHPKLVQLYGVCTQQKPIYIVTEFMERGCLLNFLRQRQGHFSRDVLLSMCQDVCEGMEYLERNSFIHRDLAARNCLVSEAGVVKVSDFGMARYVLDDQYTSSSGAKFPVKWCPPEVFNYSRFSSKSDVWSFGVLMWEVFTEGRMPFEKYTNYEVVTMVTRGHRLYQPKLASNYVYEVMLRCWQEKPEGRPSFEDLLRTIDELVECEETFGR
condition-summary: at 0.1 µM
Description: GSK_PKIS: TEC mean inhibition at 0.1 uM [Nanosyn]
measurement-label: inhibition (%)
Please respond with the number in % and leave the unit unwritten.

1) O=C(O[C@H]1CN[C@H](C#Cc2cc3ncnc(Nc4ccc(Cc5ccccc5)cc4)c3s2)C1)N1CCOCC1 ... -0.07
2) CC(C)COC(=O)c1ccc2c(c1)/C(=C/Nc1ccc(S(N)(=O)=O)cc1)C(=O)N2 ... 0.3
3) CC1=C(C(=O)Nc2cc(Cl)c3[nH]ncc3c2)C(c2ccc(C(F)(F)F)cc2)CC(=O)N1 (stereo not given) ... 3.36

Consider the molecule CCOc1ccc2c(-c3ccnc(Nc4cccc(C(F)(F)F)c4)n3)cnn2n1 . State its measured inhibition. -0.08

Consider the molecule Nc1nc(-c2cccc(Cl)c2)c(-c2ccc3ncccc3n2)s1 . State its measured inhibition. 5.56

Consider the molecule COc1cccc(-c2c[nH]c3c(N/N=C/c4ccncc4)ncnc23)c1 . State its measured inhibition. 3.87

====

system-name: Receptor tyrosine-protein kinase erbB-4 (Homo sapiens);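 further: each value is a mean percent inhibition of ERBB4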
condition-summary: at 1 µM
# inhibition per entry
Please respond with the number in % and leave the unit unwritten.

Observe how each entry below is paired with its result.
1) Fc1ccc(-c2nn3ncccc3c2-c2ccnc(Nc3ccc4c(c3)OCCO4)n2)cc1 ... 94.6
2) CCCN(CCS(C)(=O)=O)Cc1ccc(-c2ccc3ncnc(Nc4ccc(OCc5cccc(F)c5)c(Cl)c4)c3c2)o1 ... 79.2
3) [O-][S+]1CCN(Cc2ccc(-c3ccc4ncnc(Nc5ccc(OCc6cccc(F)c6)c(Cl)c5)c4c3)o2)CC1 ... 91.3
4) COc1ccc(-c2nn3ncccc3c2-c2ccnc(Nc3ccc4c(c3)OCCO4)n2)cc1 ... 108

Turning now to a further record.
Consider the compound COc1ccc2c(-c3ccnc(Nc4cccc(OC(F)(F)F)c4)n3)cnn2n1 . State its measured inhibition. 9.71

====

system-name: Ribosomal protein S6 kinase alpha-4 (Homo sapiens);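 further: values are mean inhibition of MSK2, from GSK PKIS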
condition-summary: at 0.1 µM
# inhibition per entry
Please respond with the number in % and leave the unit unwritten.

Observe how each entry below is paired with its result.
1) CN(C)CCOc1ccc(-c2nc(-c3ccncc3)c(-c3ccc4c(c3)CC/C4=N\O)[nH]2)cc1 ... 2.36
2) CC(C)(CO)CNC(=O)c1ccc2c(c1)/C(=N/Nc1ccc(S(N)(=O)=O)cc1)C(=O)N2 ... 1.15
3) FC(F)(F)c1cccc(-c2nn3ncccc3c2-c2ccnc(Nc3ccc4c(c3)OCCO4)n2)c1 ... 0.3

Consider the compound c1ccc(-c2nc3n(c2-c2ccc4c(c2)OCO4)CCC3)nc1 . State its measured inhibition. 5.25

Consider the compound CN1CCC(n2cnc(-c3ccc(F)cc3)c2-c2ccnc(Nc3ccccc3)n2)CC1 . State its measured inhibition. 1.72

Consider the compound CCCN1CCC(c2ccc(Nc3nc(Nc4cc(F)ccc4C(N)=O)c4cc[nH]c4n3)c(OC)c2)CC1 . State its measured inhibition. 2.82
